Origin of measurements: patent US6620587B1

target: DB3 VH/K expressed as an ARM; assay: Inhibition by free steroids of DB3 VH/K ARM binding to progesterone-coated beads; details: free steroid added to DB3 ARM mixture, read-out: 50% inhibition of DB3 VH/K ARM binding
MEASUREMENT_NAME: pIC50
When answering, recall that pIC50 equals minus log10 of the concentration in mol/L, and write that number alone.

The recorded pIC50 for CC(=O)[C@H]1CC[C@H]2[C@@H]3CCC4=CC(=O)CC[C@]4(C)[C@H]3[C@H](OC(=O)CCC(=O)O)C[C@]12C [progesterone-11α-HMS, progesterone-11α-hemisuccinate] is 8.60
